subject of test: APE1 (Homo sapiens, UniProt P27695)
Construct: made in house
Sequence (P27695 whole entry): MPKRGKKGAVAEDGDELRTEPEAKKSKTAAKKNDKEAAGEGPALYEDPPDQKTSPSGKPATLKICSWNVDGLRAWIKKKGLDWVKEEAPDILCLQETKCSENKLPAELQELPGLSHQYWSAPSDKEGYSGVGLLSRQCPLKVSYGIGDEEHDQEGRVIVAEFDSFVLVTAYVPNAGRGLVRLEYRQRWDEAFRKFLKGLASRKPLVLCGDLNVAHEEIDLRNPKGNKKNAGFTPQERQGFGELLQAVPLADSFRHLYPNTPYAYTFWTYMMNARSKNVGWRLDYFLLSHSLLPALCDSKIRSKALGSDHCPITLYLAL
measurement description: Gel-based radiotracer (32P) APE1 incision assay;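 note: APE1 incision reactions ran 5 min at 37 °C, with cleaved product and intact substrate resolved electrophoretically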
Type: biochemical
Set-up: concentration or dose not given beside the values
conditions used: percent incision shown; entries 1-112
We label by threshold. Values of Radiotracer Assay (%Activity) strictly beneath 20% are satisfied. Values of 20% and up are not satisfied.

Please review the entries below; each comes with its answer.
| molecule | group |
| --- | --- |
| CCN(CC)C(=O)CC(c1cc(OC)c(OC)c(OC)c1)c1c(OC)cc(OC)c2c(-c3ccccc3)cc(=O)oc12 (centres unmarked) | not satisfied |
| O=C1NC(=O)N(Cc2ccco2)C(=O)C1=CC=Cc1ccco1 | satisfied |
| O=C(O)c1cccc(-c2ccc(/C=c3/sc4nc5ccccc5n4c3=O)o2)c1 | not satisfied |
| O=C(CSc1nc(-c2ccc(F)cc2)nc2c1Cc1ccccc1O2)Nc1ccc(C(=O)O)cc1 | not satisfied |
| Nc1ccc(Nc2ccccc2)c(S(=O)(=O)O)c1 | satisfied |
| O=C(NC1CC1)c1cc(-c2ccco2)nc2ccccc12 | satisfied |
| CCCSC1=N/C(=C\C=C\c2ccco2)C(=O)S1 | not satisfied |

For this molecule, is Radiotracer Assay (%Activity) lower than 20%? Cc1cc(/C=C2\C(=O)NC(=O)N(Cc3ccccc3Cl)C2=O)c(C)n1-c1ccc(C(=O)O)cc1
satisfied

====

subject of test: APE1 (Homo sapiens, UniProt P27695)
Construct: made in house
measurement description: Gel-based APE1 incision assay with fluorescence (TAMRA) detection
Assay type: biochemical
conditions used: estimated IC50, fluorophore detection; entries 113-223; read-out: F-PAGE Assay IC50
For each record, check the reported IC50: if it is below 5 µM write label 1, else write label 0.

| compound | subject of test | group |
| --- | --- | --- |
| O=C(COC(=O)c1ccccc1)Nc1ncc([N+](=O)[O-])s1 [MLS002171184] | APE1 (Homo sapiens, UniProt P27695) | label 1 |
| CC(=O)c1ccccc1NS(=O)(=O)c1cccc2nsnc12 [MLS001008046] | APE1 (Homo sapiens, UniProt P27695) | label 0 |
| O=C(COC(=O)Cc1cccc(C(F)(F)F)c1)NCc1ccco1 [MLS002169571] | APE1 (Homo sapiens, UniProt P27695) | label 0 |
| Cc1ccc(C)c(NC(=O)CN(C)C(=O)c2cccc(-n3cccc3)c2)c1 [MLS001161412] | APE1 (Homo sapiens, UniProt P27695) | label 1 |

Field: below-cutoff. Rule: recorded IC50 strictly less than 5 µM. Subject: O=C(Nc1ccc2oc(-c3ccccc3F)nc2c1)c1ccc([N+](=O)[O-])o1 [MLS001194759]
label 1

API: query returns whether the compound falls strictly under 5 µM in IC50. Query: Nc1nc(=S)c2ncn(C3OC(CO)C(O)C3O)c2[nH]1 (stereo not drawn) [MLS000738229]
label 1

Please determine if COCCN(C(=O)COC(=O)c1cc2c(s1)CCC2)c1c(N)n(Cc2ccccc2)c(=O)[nH]c1=O [MLS001080179] is below 5 µM in terms of IC50.
label 1

====

Listed below: pIC50 values for each entry.
subject of test: APE1 (Homo sapiens)
Construct: made in house
measurement description: Fluorogenic kinetic qHTS APE1 incision assay (primary screen and retest of cherrypicked samples);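 note: purified APE1 cleaving a fluorophore/dark-quencher labelled 17-mer duplex DNA bearing a tetrahydrofuran AP site, fluorescence rise followed kinetically over the first 2 min, inhibition normalized to controls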
Assay type: biochemical
conditions used: retest of cherrypicked sample; read-out: APE1 Retest IC50
In simple prose, pIC50 is minus the logarithm base ten of a concentration in moles per litre.

The examples below pair each entry with its known result.
| compound | pIC50 |
| --- | --- |
| O=C(Nc1ccc2nc(-c3ccco3)c(-c3ccco3)nc2c1)N1CCCCCC1 | 5.40 |
| Cc1c(C(=O)OCC2CCCO2)[nH]c2c1C(=O)CC(c1ccco1)C2 (stereo not shown) | 5.35 |
| O=C(O)C1Nc2ccc(Br)cc2C2C=CCC12 (stereo not shown) | 4.74 |
| COc1ccc(CCn2c(O)cc3nn(-c4nc5ccccc5s4)c(=O)c-3c2C)cc1 | 4.80 |
| NS(=O)(=O)c1cccc(NC(=O)c2ccc3nc[nH]c3c2)c1 | 4.34 |

Lookup: pIC50 / APE1 (Homo sapiens) / CSCC[C@H](NS(=O)(=O)c1ccc(C(C)=O)cc1)c1nnc2ccccn12
5.04

Record COC(=O)c1ccn(CC(=O)NC2CCCCC2)n1 : what is its pIC50 with APE1 (Homo sapiens)?
4.89

Values were extracted from paper PMC3479139.
